# Activity per record follows
# Test system: Mus musculus
# Experiment summary: Antiarrhythmic activity in calcium chloride-induced mouse arrhythmia model assessed as prolongation of time to conduct cardiac block at 10 pmol/kg, iv relative to control
# Type: functional, Heart

- Compound: "NCC(=O)N1C[C@H](NC(=O)c2ccccc2)C[C@H]1C(=O)O [DANEGAPTIDE]"
  Activity [%]: 206.6
- Compound: "COC(=O)[C@@H]1C[C@@H](NC(=O)c2ccccc2)CN1C(=O)CNC(=O)OC(C)(C)C"
  Activity [%]: 166.3
- Compound: "NCC(=O)N1C[C@H](NC(=O)c2ccccc2)C[C@H]1C(N)=O"
  Activity [%]: 193.2
- Compound: "CNC(=O)[C@@H]1C[C@@H](NC(=O)c2ccccc2)CN1C(=O)CN"
  Activity [%]: 145
- Compound: "CC(C)NC(=O)[C@@H]1C[C@@H](NC(=O)c2ccccc2)CN1C(=O)CN"
  Activity [%]: 162
- Compound: "CC(C)[C@@H](C)NC(=O)[C@@H]1C[C@@H](NC(=O)c2ccccc2)CN1C(=O)CN"
  Activity [%]: 120.1
- Compound: "NCC(=O)N1C[C@H](NC(=O)c2ccccc2)C[C@H]1C(=O)N[C@@H]1CCOC1"
  Activity [%]: 143.5
- Compound: "CCNC(=O)[C@@H]1C[C@@H](NC(=O)c2ccccc2)CN1C(=O)CN"
  Activity [%]: 137.2
- Compound: "NCC(=O)N1C[C@H](NC(=O)c2ccccc2)C[C@H]1C(=O)NC1CCOCC1"
  Activity [%]: 99.4
- Compound: "CC(C)(C)OC(=O)NCC(=O)N1C[C@H](NC(=O)c2ccccc2)C[C@H]1C(=O)O"
  Activity [%]: 156.2
- Compound: "CC(=O)NCC(=O)N1C[C@H](NC(=O)c2ccccc2)C[C@H]1C(=O)O"
  Activity [%]: 165.7
- Compound: "O=CNCC(=O)N1C[C@H](NC(=O)c2ccccc2)C[C@H]1C(=O)O"
  Activity [%]: 170.4
- Compound: "CC(C)(C)NC(=O)[C@@H]1C[C@@H](NC(=O)c2ccccc2)CN1C(=O)CN"
  Activity [%]: 135.7
- Compound: "NCC(=O)N1C[C@H](NC(=O)c2ccccc2)C[C@H]1C(=O)NC1CCCC1"
  Activity [%]: 110.6
- Compound: "CN(C)CC(=O)N1C[C@H](NC(=O)c2ccccc2)C[C@H]1C(=O)O"
  Activity [%]: 118.9
- Compound: "NCC(=O)N1C[C@H](NC(=O)c2ccccc2)C[C@H]1C(=O)NC1CC1"
  Activity [%]: 196
- Compound: "CNCC(=O)N1C[C@H](NC(=O)c2ccccc2)C[C@H]1C(=O)O"
  Activity [%]: 120.7
